Hey, just so you know, these numbers are from ChEMBL document CHEMBL1139979.

molecular target: Adenosine receptor A1 (Rattus norvegicus) (UniProt P25099); experiment: Displacement of [3H]CCPA from adenosine A1 receptor in rat brain cortical membrane at 25 uM; type: cell membranes
Sequence (P25099 whole entry): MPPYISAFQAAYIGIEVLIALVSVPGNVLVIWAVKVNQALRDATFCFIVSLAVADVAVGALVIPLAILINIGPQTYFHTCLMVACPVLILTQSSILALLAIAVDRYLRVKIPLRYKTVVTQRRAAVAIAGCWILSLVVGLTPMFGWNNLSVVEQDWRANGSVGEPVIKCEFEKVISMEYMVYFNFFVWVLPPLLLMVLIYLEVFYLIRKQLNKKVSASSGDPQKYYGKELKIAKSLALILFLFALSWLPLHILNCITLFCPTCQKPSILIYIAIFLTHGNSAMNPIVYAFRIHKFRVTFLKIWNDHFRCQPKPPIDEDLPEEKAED
Hi! Just check whether Activity is below 60%. Below gives True, equal or above gives False.

Answered cases to consult:
{"columns": ["molecule", "class.name"],
 "data": [
  ["COc1ccccc1CN1CCCn2c1nc1c2c(=O)n(C)c(=O)n1C", "True"],
  ["CC(c1ccccc1)N1CCCn2c1nc1c2c(=O)n(C)c(=O)n1C (stereo unspecified)", "True"],
  ["COc1ccc(CN2CCCn3c2nc2c3c(=O)n(C)c(=O)n2C)cc1", "True"],
  ["Cn1c(=O)c2c(nc3n2CCCN3Cc2cccc(Cl)c2)n(C)c1=O", "False"]
]}

Next, consider the following molecule.
Query :: State whether 60% exceeds Activity recorded for Cn1c(=O)c2c(nc3n2CCCN3Cc2ccccc2)n(C)c1=O .
Result :: False
